# Tested on: Plasmodium falciparum
# assay: Primary screen in NF54 nanoGlo assay, in single point, at 2uM, 72h; a lower Z score goes with more inhibition
# Format: functional, Erythrocyte
# conditions.used: timepoint 72 hour
In all, about 150,000 compounds went through this assay and about 540 (0.36%) showed an effect of 50% or more. The full list was thinned out, with strong results kept by preference.
quantity.kind: Z score

As a guide, the following entries are already answered.
molecule	target.desc	quantity.kind	data.value
Cc1ccc(CNC(=O)CCNc2c(-c3cccc(F)c3)nc3cnccn23)o1	Plasmodium falciparum	Z score	2.57
Cc1ccc(-c2nccn3cc(C(=O)N4CCCCC4)nc23)cc1	Plasmodium falciparum	Z score	0.32

Name the recorded Z score for `CC(=O)Nc1ccc2nc(N3CCC(C(=O)N4CCC(N5CCCCC5)CC4)CC3)cc(C)c2c1` .
-1.6

Name the recorded Z score for `CC(=O)Nc1ccc2nc(N3CCC(C(=O)NC4CC4)CC3)cc(C)c2c1` .
-1.23

Name the recorded Z score for `COc1ccc(OC)c([C@@H]2CCCN2c2nnc(-c3ccccn3)s2)c1` .
2.07

Name the recorded Z score for `CC(C)(C)[C@H]1CCc2c(sc(NC(=O)CN3CCCC3)c2C#N)C1` .
-1.29

Name the recorded Z score for `COc1ccc(F)cc1S(=O)(=O)N1CCc2noc(N)c2C1` .
-5.81

Name the recorded Z score for `COc1ccc(-c2nccn3cc(C(=O)N4CCCC4)nc23)cc1` .
-2.95

Name the recorded Z score for COC(=O)C1(NC(=O)OC(C)(C)C)CC(CN2CCN(C)CC2)C1 (stereo not drawn) .
-2.05

Name the recorded Z score for `CC1(C)C(CNC(=O)CCn2cc(C(N)=O)c(=O)[nH]c2=O)C1(C)C` .
-2.23

Name the recorded Z score for `CCc1cnc(CN2CCC[C@H]2c2noc(CC)n2)o1` .
1.41

Sourced from ChEMBL document CHEMBL4888484
